Sourced from ChEMBL document CHEMBL3826921

# Test system: MV4-11
# Test Method Notes: Antitumor activity against human MV4-11 cells xenografted in NOD/SCID mouse assessed as change in tumor mass at 10 mg/kg, iv administered every 2 days for 11 days measured every 2 days of compound dosing relative to control
# Type: functional
Property: Activity (%)
Field format: number, assumed %, no unit text.

* CN(Cc1nc2c(N3CCOCC3)nc(-c3ccncc3)nc2n1C)c1ncc(C(=O)NO)cn1 | 64.3
* CN(Cc1nc2c(N3CCOCC3)nc(-c3cnc(N)nc3)nc2n1C)c1ncc(C(=O)NO)cn1 | 45.1
* COc1ccc(-c2nc(N3CCOCC3)c3nc(CN(C)c4ncc(C(=O)NO)cn4)n(C)c3n2)cn1 | 63.4
* COc1ccc(-c2nc(N3CCOCC3)c3nc(CN(C)c4ncc(C(=O)NO)cn4)n(C)c3n2)cc1 | 65.3

Okay, now this compound:
Look up and state reported Activity for "CN(Cc1nc2c(N3CCOCC3)nc(-c3ccc(N)cc3)nc2n1C)c1ncc(C(=O)NO)cn1"
65.6
